Numbers sourced from PubChem BioAssay (NCI).

- Protocol summary: NCI Yeast Anticancer Drug Screen. Data for the bub3 strain (AID 167)
- Run parameters: S. cerevisiae bub3 mutant strain, at 50.0 µM, stronger effect = higher value
This is part of a sample that, as a whole, favours compounds with a hit. Of some 79,000 tested, about 15% had one in any assay.

| Compound | growth inhibition, % |
| --- | --- |
| CC(=O)O[C@]12CCCCCC1C1(O)C(O)CCC[C@H]12 (stereo partly drawn) | -26.1 |
| Cn1c(Nc2ccccc2)c([N+](=O)[O-])c(=O)n(C)c1=O | -2.15 |
| COC(=O)C(C#N)=C(C)C | 0.05 |
| O=P(O)(O)c1ccc(-c2ccc(P(=O)(O)O)cc2)cc1 | 2.3 |
| CC(=O)C(CCCCCCCCCCC(C(C)=O)C(C)=O)C(C)=O | -6 |
| CCC(C)CCC(C)(O)CC (stereo not drawn) | 16.2 |
| CC1COCOC1c1ccc2c(c1)OCO2 (stereo not drawn) | -9.45 |
| CC(=O)NC(CCCNC(=O)OCc1ccccc1)C(=O)NCc1ccccc1 (stereo not drawn) | -16.9 |
| Nc1nc(N)nc(Cc2ccccc2)n1 | -15 |
| CC(O)C1OC(=O)C(O)C1O (stereo not drawn) | 5.95 |
| Cc1c2cnccc2c(C)c2c1c1ccccc1n2CCNCc1ccccc1 | 1.15 |
| CCO[Si](OCC)(OCC)c1ccccc1 | -14.5 |
| CCN(CC)C(=O)c1ccc(C)c(N=NN(C)C)c1 | -19.9 |

====

- Protocol summary: NCI Yeast Anticancer Drug Screen. Data for the bub3 strain (AID 167)
- Run parameters: S. cerevisiae bub3 mutant strain, at 50.0 µM, stronger effect = higher value
This is part of a sample that, as a whole, favours compounds with a hit. Of some 79,000 tested, about 15% had one in any assay.
Consider the following compounds and their measured growth inhibition readings.
Metric: growth inhibition (%)

| Compound | Numeric value |
| --- | --- |
| CCCCOC(=O)C(C)OC(=O)/C=C\C(=O)OC(C)C(=O)OCCCC (stereo not drawn) | 2.4 |
| FC(F)(F)c1ccc2nc[nH]c2c1 | 9.6 |
| Nc1cc(F)cc(C(F)(F)F)c1F | -5.35 |
| O=C1/C(=C\c2ccc(O)cc2)CCC/C1=C/c1ccc(Cl)c(Cl)c1 | -4.85 |
| O=C(OCCO)c1ccc(O)c(O)c1 | -6.1 |
| CCCC(O)C(C)(C)C (stereo not drawn) | -43.5 |
| COc1ccc(Cc2c(O)ccc3ccccc23)cc1 | 98.3 |
| Cc1cc2c(c(C(=O)NCCC(=O)O)c1)Oc1c(cc(C)cc1C(=O)NCCC(=O)O)S2 | -44.1 |
| CC1CCc2c(nc(C#N)c(=N)n2O)C1 (stereo not drawn) | -12.2 |
| Nc1nn(CC(O)CO)c(=O)s1 (stereo not drawn) | 8.1 |
| ON=C(C(Cl)(Cl)Cl)C(Cl)(Cl)Cl | -11.9 |
| Cc1c2ccccc2c(CN(C)CC(=O)NCC(=O)NCC(=O)O)c2ccccc12 | 98.2 |
| COc1cc([N+](=O)[O-])c2[nH]c(=O)ccc2c1 | -2.05 |

====

Consider the following compounds and their measured growth inhibition readings.
- Protocol summary: NCI Yeast Anticancer Drug Screen. Data for the bub3 strain (AID 167)
- Run parameters: S. cerevisiae bub3 mutant strain, at 50.0 µM, stronger effect = higher value
The panel holds about 79,000 compounds, 15% with a hit somewhere; the sample as a whole holds those more often.
Metric: growth inhibition (%)

| Compound | Numeric value |
| --- | --- |
| Clc1cccc(-c2nc3cccc4c3n2Cc2ncccc2-4)c1 | 0.65 |
| CCCCCCCCCCCCNCC(O)c1cc(-c2ccccc2)nc2c(Cl)cc(Cl)cc12 (centres undefined) | -8 |
| O=C(c1cccc(C(F)(F)F)c1)c1ccccc1Cc1ccccc1 | 14.2 |
| N#C/C(=C\c1ccc(C#N)cc1)C(=O)O | -14.4 |
| CCCc1[nH]n(-c2cccc([N+](=O)[O-])c2)c(=O)c1N=Nc1ccc(Cl)cc1 | -2.5 |
| CC(=O)NNC(=S)/N=C/C(C(=O)Nc1ccc([N+](=O)[O-])cc1)=C(\C)O | 6.5 |
| Nc1cccc(/C=C/c2ccc([N+](=O)[O-])cc2)c1 | 30 |
| Nc1nc2ncc(CCCNc3ccc(C(=O)NC(CCC(=O)O)C(=O)O)cc3)nc2c(=O)[nH]1 (centres undefined) | 3.7 |
| CC1(C)OC(C)(C)c2c1nnc(-c1ccccc1[N+](=O)[O-])[n+]2[O-] | 26.9 |
| CC1(c2ccccc2)CCC(=O)NC1 (centres undefined) | -7.25 |
| OCC1OC(n2c(SCc3ccccc3)nc3ccccc32)C(O)C1O (centres undefined) | 6.4 |
| CC(C)(C)CC(C)(C)N | -2.35 |
| C[CH2][Ge]([CH2]C)[CH2]C.C[CH2][Ge]([Cl])[CH2]C | 41.8 |
| CC1=NN2C(c3ccc(Cl)cc3)=CSC2=NC(C)(C)C1 | -8.6 |
| CCN(CC)C(=O)c1cccc(C(=O)N(CC)CC)n1 | 21.4 |
| COc1cc(CNC(=S)CCCCCCCCCCC(C)C)ccc1O | 15.2 |
| CCCCN(CCCC)CC(O)c1cc(-c2cc(C(O)CN(CCCC)CCCC)c3ccccc3n2)nc2ccccc12 (centres undefined) | 5.3 |
| CC(C)CCCC(C)C1CCC2C3CCC4Cc5c(c6ccccc6n5C)CC4(C)C3CCC12C (centres undefined) | -8.95 |
| Nc1cccc(C(F)(F)F)c1[N+](=O)[O-] | -25.9 |
| O=C(O)c1ccc2c(c1)S(=O)(=O)NC2=O | 12.1 |
| O=C(O)c1c(F)c(F)c(C(=O)O)c(F)c1F | 14.9 |
| CCN(CC)c1ccc(CO)cc1 | -1.05 |
| CC(Br)CNC(=O)c1ccc([N+](=O)[O-])cc1 (centres undefined) | 9.75 |
| Cn1nnn2c(-c3ccccc3)nnc12 | 0.8 |
